Entry source: PubChem BioAssay (NCI)

system: HCC-2998 colon; experiment: NCI-60 one-dose screen, 48 h (100 = growth as untreated, 0 = no growth, -100 = all killed); details: 10 µM
The panel holds about 83,000 compounds, 20% with a hit somewhere; the sample as a whole holds those more often.
If the reported growth equals or exceeds 40%, assign Fulfilled. If not, assign Not fulfilled.

smiles=COc1ccc2[nH]c(O)c(N=NC(=O)COc3ccc(NC(=O)Nc4ccc(Cl)cc4)cc3)c2c1 assigned_class="Not fulfilled"
smiles=COc1ccc2nc(Cl)c(-c3cc(-c4ccccc4)nc(=S)[nH]3)cc2c1 assigned_class=Fulfilled
smiles=Cc1cc2c(c(O)c1Br)-c1ncoc1C(=O)[C@]1(C)CC[C@H](C(C)C)[C@H]21 assigned_class="Not fulfilled"
smiles=O=C1NC(=NC23CC4CC(CC(C4)C2)C3)N/C1=C\c1ccc2ncoc2c1 assigned_class="Not fulfilled"
smiles=CN1CCN(Cc2ccc(NC(=O)c3cncc(C#Cc4cnc5ccc(N[C@@H]6CCOC6)nn45)c3)cc2C(F)(F)F)CC1 assigned_class="Not fulfilled"
smiles=O=C(CNc1nc(-c2ccccc2)cs1)Nc1cccc([N+](=O)[O-])c1 assigned_class="Not fulfilled"
smiles=Cc1ccc(-c2ccc(SCC(=O)Nc3ccc(Cl)c(C(F)(F)F)c3)nn2)cc1 assigned_class="Not fulfilled"
smiles=[2H]C([2H])([2H])Oc1ccc2ncc(C#Cc3cncc(C(=O)Nc4ccc(CN5CCN(C)CC5)c(C(F)(F)F)c4)c3)n2n1 assigned_class="Not fulfilled"
smiles=Cc1ccc(C(=O)Nc2ccc(-n3c(C)nc4c(cnn4-c4ccccc4)c3=O)cc2)cc1 assigned_class=Fulfilled
